Origin of measurements: patent US20240207299A1

- TEST_PROTOCOL: Cytotoxicity, neutral red, Caco2 cells
- Type: cell-based
- ASSAY_CONTEXT: human, read-out: CC50: 50% cytotoxic concentration of compound without virus added
- Procedure: Virus yield reduction assay in Caco-2 cells: The virus yield reduction (VYR) assay set up was similar to that described for the neutral red assay excepting Caco2 cells were used. On day 3 post-infection, cell culture supernatant from wells was collected and infectious virus determined by running a standard endpoint dilution CCID50 assay. Compound dilution that reduced virus yield by 1 log10 was calculated. […]
MEASUREMENT_KIND: CC50 at 3 days (µM)
// units = µM; emit number, no label

// sample NC(=O)c1cn([C@@H]2O[C@H](CO)[C@@H](O)[C@H]2O)c2ncnc(N)c12 [Sangivamycin, reference compound] , its CC50 at 3 days was 0.12
